experiment: Pharmacokinetic study of Cory B, CB6 and CB8 in rats (plasma, LC/MS/MS, NCA)
Design: species or system Male Sprague-Dawley (SD) rats
condition parameters: male, Sprague-Dawley, rat, in vivo, inhaled or intranasal; rats, intranasal, 1 mg/kg; read-out: AUC (area under the curve) (converted)
observable: AUC

[ask] Sample CC[C@@H]1CN2CC[C@]3(C(=O)Nc4ccccc43)C2C[C@@H]1C(=COC)C(=O)OC (stereo partly shown) [Cory B, Corynoxine B] — what was its AUC?
[reply] 92.6 ng·h/mL

* * *

experiment: Pharmacokinetic study of Cory B, CB6 and CB8 in rats (plasma, LC/MS/MS, NCA)
Parameters: species or system Male Sprague-Dawley (SD) rats
condition parameters: male, Sprague-Dawley, rat, in vivo, inhaled or intranasal; rats, intranasal, 1 mg/kg; read-out: Cmax (maximum plasma concentration)
observable: Cmax (ng/mL)
Output spec: scalar in ng/mL, unitless text.

[ask] Suppose we examine the molecule CC[C@@H]1CN2CC[C@]3(C(=O)Nc4ccccc43)C2C[C@@H]1C(=COC)C(=O)OC (stereo partly shown) ; what Cmax value has been reported?
[reply] 145

* * *

experiment: Pharmacokinetic study of Cory B, CB6 and CB8 in rats (plasma, LC/MS/MS, NCA)
Design: species or system Male Sprague-Dawley (SD) rats
condition parameters: male, Sprague-Dawley, rat, in vivo, inhaled or intranasal, 1 mg/kg
Assignment: determine reported MRT for the given compounds.
Give the value, in units of h, as a plain number.

[ask] Please give the measured MRT for this compound: C=CCN1C(=O)[C@]2(CCN3C[C@@H](CC)[C@@H](/C(=C\OC)C(=O)OC)C[C@H]32)c2ccccc21 [CB8]
[reply] 1.95

[ask] Requested read-out: MRT. Entry: CCCN1C(=O)[C@]2(CCN3C[C@@H](CC)[C@@H](/C(=C\OC)C(=O)OC)C[C@H]32)c2ccccc21 [CB6]
[reply] 1.83

* * *

experiment: Pharmacokinetic study of Cory B, CB6 and CB8 in rats (plasma, LC/MS/MS, NCA)
Design: species or system Male Sprague-Dawley (SD) rats
condition parameters: male, Sprague-Dawley, rat, in vivo, inhaled or intranasal, 1 mg/kg
observable: Cmax (ng/mL)
API: value field is a number in ng/mL; no unit string.

[ask] Recorded Cmax for C=CCN1C(=O)[C@]2(CCN3C[C@@H](CC)[C@@H](/C(=C\OC)C(=O)OC)C[C@H]32)c2ccccc21 , please?
[reply] 129

[ask] Which Cmax value belongs to CCCN1C(=O)[C@]2(CCN3C[C@@H](CC)[C@@H](/C(=C\OC)C(=O)OC)C[C@H]32)c2ccccc21 ?
[reply] 244

* * *

experiment: Pharmacokinetic study of Cory B, CB6 and CB8 in rats (plasma, LC/MS/MS, NCA)
Set-up: species or system Male Sprague-Dawley (SD) rats
condition parameters: male, Sprague-Dawley, rat, in vivo; rats, intravenous, 1 mg/kg; read-out: MRT (mean residence time) (converted)
Protocol: Male Sprague-Dawley (SD) rats (weighting ˜200 g) used in the experiment are provided by Laboratory Animal Services Center of The Chinese University of Hong Kong (Hong Kong SAR, People's Republic of China). Cory B (n=3), CB6 (n=6) and CB8 (n=6). […] After another round of vortex and centrifugation, 10 μL of the supernatant is subjected to LC/MS/MS for quantification of Cory B, CB6 or CB8 with an established LC/MS/MS method. […]
observable: MRT (h)
// return numeric value only (unit: h, not printed)

[ask] Fill in: MRT of CC[C@@H]1CN2CC[C@]3(C(=O)Nc4ccccc43)C2C[C@@H]1C(=COC)C(=O)OC (stereo partly shown) [Cory B, Corynoxine B] is ___
[reply] 2.3
